Reported inhibition at 10000 µM values for the following molecules.
Molecular target: Porcine pancreatic α-amylase (Sus scrofa)
Construct: purchased Sigma-Aldrich (Milan, Italy)
Experiment: Pancreatic α-amylase inhibition (modified K-AMYLSD kit, p-nitrophenyl-α-D-maltoheptaoside substrate)
Format: biochemical
Settings: 10 mM final concentration; versus controls with 15% MeOH
Give the number; % is assumed, so skip it.

COc1cc(/C=C/c2ccc3c(c2)[C@@H](c2cc(OC)cc(OC)c2)[C@H](c2ccc(O)cc2)O3)cc(OC)c1 (relative stereo) [compound 8, pterostilbene-trans-dihydrodimer]    28

### Prompt Request the reported inhibition at 10000 µM associated with `COc1cc(/C=C/c2ccc(O)cc2)cc(OC)c1`
### Response 21

====

# inhibition at 10000 µM listing for each entry below
Biological target: Porcine pancreatic α-amylase (Sus scrofa)
Construct: purchased Sigma-Aldrich (Milan, Italy)
Sequence (P00690 16-511): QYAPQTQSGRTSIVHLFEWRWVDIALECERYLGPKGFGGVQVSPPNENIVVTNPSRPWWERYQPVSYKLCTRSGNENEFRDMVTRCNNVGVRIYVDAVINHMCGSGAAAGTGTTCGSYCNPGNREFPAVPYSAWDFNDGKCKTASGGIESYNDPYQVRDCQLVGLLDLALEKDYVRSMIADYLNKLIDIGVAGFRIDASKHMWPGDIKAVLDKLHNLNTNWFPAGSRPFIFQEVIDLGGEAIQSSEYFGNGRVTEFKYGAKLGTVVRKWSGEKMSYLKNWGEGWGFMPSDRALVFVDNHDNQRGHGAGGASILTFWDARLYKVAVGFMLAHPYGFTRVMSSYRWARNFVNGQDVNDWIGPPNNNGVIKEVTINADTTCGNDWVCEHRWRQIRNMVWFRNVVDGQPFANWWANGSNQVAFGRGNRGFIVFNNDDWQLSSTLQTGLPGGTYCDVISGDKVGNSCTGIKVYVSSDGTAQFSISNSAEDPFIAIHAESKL
Test: Pancreatic α-amylase inhibition (modified K-AMYLSD kit, p-nitrophenyl-α-D-maltoheptaoside substrate)
Format: biochemical
Settings: 10 mM final concentration; versus controls with 15% MeOH

Oc1ccc([C@@H]2c3c(O)cc(O)cc3[C@H]3[C@H](c4ccc(O)cc4)c4c(O)cc(O)cc4[C@@H]23)cc1    21 to 45%
Oc1ccc(C2Oc3ccc(C=Cc4cc(O)cc(O)c4)cc3C2c2cc(O)cc(O)c2)cc1 (stereo not drawn) [compound 5, Trans-δ-viniferin]    ~90%

Consider the additional compound presented here.
### Prompt # inhibition at 10000 µM lookup, item Oc1ccc(C=Cc2cc(O)cc3c2C(c2cc(O)cc(O)c2)C(c2ccc(O)cc2)O3)cc1 (stereo not drawn) [compound 6, Trans-ε-viniferin]
### Response ~90%
